Where do these numbers come from? They come from patent US12371436B2.

Form field: IC50 (one value per entry).
Target system: ENaC (Homo sapiens, UniProt P37088+P51168+P51170)
Construct: host or cells: primary human bronchial epithelial cells (HBECs) differentiated at air-liquid interface
Sequence (P37088 1-669): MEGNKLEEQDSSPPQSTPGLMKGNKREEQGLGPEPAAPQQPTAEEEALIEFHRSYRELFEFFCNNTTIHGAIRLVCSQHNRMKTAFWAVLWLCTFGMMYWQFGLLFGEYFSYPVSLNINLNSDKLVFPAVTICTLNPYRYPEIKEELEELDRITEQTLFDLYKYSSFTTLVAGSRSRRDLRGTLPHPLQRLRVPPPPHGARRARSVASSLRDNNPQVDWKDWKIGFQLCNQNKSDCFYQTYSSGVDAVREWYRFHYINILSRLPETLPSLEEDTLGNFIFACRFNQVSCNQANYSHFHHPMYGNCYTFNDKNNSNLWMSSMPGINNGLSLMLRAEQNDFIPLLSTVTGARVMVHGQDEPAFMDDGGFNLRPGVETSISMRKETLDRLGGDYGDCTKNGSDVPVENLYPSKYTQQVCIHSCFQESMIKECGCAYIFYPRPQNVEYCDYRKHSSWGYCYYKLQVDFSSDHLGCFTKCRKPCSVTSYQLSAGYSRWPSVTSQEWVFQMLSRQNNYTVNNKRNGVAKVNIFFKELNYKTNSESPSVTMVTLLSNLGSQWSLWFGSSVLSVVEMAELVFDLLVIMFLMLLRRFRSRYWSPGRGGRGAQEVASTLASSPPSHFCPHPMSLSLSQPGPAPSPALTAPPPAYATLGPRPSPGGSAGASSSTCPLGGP
Sequence (P51168 1-640): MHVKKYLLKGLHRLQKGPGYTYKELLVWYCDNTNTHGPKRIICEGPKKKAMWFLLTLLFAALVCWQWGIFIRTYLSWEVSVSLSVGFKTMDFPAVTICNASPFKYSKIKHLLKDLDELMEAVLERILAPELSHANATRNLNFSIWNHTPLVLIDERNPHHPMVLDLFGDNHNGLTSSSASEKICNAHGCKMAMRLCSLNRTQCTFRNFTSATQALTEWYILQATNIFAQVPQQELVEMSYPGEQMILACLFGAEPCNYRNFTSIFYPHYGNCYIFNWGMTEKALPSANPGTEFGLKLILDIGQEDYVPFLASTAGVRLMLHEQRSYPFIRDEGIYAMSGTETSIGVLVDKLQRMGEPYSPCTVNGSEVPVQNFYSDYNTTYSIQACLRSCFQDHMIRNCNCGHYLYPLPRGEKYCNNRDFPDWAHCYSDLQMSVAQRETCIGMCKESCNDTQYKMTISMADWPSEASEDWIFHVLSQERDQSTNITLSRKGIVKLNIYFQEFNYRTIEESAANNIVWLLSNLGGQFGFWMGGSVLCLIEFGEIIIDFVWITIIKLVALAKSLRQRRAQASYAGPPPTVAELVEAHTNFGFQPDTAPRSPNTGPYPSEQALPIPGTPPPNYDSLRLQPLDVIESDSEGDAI
Sequence (P51170 1-649): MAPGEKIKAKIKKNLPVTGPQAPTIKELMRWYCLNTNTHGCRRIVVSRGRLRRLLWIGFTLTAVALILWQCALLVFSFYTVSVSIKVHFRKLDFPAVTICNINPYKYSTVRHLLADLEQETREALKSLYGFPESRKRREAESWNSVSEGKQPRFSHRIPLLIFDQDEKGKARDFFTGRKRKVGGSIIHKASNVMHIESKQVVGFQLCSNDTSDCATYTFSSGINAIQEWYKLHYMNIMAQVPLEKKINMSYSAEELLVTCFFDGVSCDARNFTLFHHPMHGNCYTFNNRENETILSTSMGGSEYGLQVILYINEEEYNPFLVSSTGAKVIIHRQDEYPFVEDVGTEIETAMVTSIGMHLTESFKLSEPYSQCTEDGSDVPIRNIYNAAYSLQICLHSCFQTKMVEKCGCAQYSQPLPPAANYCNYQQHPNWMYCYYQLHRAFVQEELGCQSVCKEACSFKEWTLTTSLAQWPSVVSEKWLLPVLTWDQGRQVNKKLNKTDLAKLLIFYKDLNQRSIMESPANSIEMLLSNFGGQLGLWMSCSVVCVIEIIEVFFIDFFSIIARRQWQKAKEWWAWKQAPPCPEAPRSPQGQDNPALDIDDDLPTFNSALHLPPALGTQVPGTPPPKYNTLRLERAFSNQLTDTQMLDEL
Assay info: Short circuit current assay to determine ENaC blocker potency in human bronchial epithelial cells
Format: cell-based
Condition label: 50% inhibition of total amiloride-sensitive ISC, apical addition, read-out: Averages.ENaC IC50 (nM) Avg
Experimental endpoint: IC50 (nM)

# Smiles string, Unit of measure, Numeric result
records = [
    ("CCn1c(CNC(=O)c2nc3cc[nH]c3nc2N)[n+](CCSC)c2ccc(OC)cc21", "nM", 5),
    ("CCn1c(CNC(=O)c2nc3cc[nH]c3nc2N)[n+](CC)c2ccc(C(=O)NCCCN)cc21", "nM", 15),
    ("CCn1c(CNC(=O)c2nc3cc[nH]c3nc2N)[n+](CC)c2ccc(C3CCN(C[C@H](O)[C@@H](O)[C@H](O)[C@H](O)CO)CC3)cc21", "nM", 8),
    ("CCn1c(CNC(=O)c2nc3cc[nH]c3nc2N)[n+](CC)c2ccc(C(=O)NCCOCCOCCOCCN(C[C@H](O)[C@@H](O)[C@H](O)[C@H](O)CO)C[C@H](O)[C@@H](O)[C@H](O)[C@H](O)CO)cc21", "nM", 171),
    ("CCn1c(CNC(=O)c2nc3cc[nH]c3nc2N)[n+](CC)c2ccc(C(=O)N3CCC(CN(C[C@H](O)[C@@H](O)[C@H](O)[C@H](O)CO)C[C@H](O)[C@@H](O)[C@H](O)[C@H](O)CO)CC3)cc21", "nM", 69),
    ("CCn1c(CNC(=O)c2nc3cc[nH]c3nc2N)[n+](CC)c2ccc(CCCN)cc21", "nM", 5),
]

----------
Target system: ENaC (Homo sapiens, UniProt P37088+P51168+P51170)
Construct: host or cells: primary human bronchial epithelial cells (HBECs) differentiated at air-liquid interface
Assay info: Short circuit current assay to determine ENaC blocker potency in human bronchial epithelial cells
Assay type: cell-based
Condition label: 50% inhibition of total amiloride-sensitive ISC, apical addition, read-out: Averages.ENaC IC50 (nM) Avg
Procedure: Example 68—Short circuit current assay to determine ENaC blocker potency in human bronchial epithelial cells Human bronchial epithelial cells (HBECs) (Lonza, UK) were cultured using a modification of the method described by Coote et al, (2008). […]

# Smiles string, IC50
measured = [
    ("CCn1c(CNC(=O)c2nc3cc[nH]c3nc2N)[n+](CCO)c2ccc(OC)cc21", "4 nM"),
    ("CCn1c(CNC(=O)c2nc3cc[nH]c3nc2N)[n+](CC)c2cc(CCCN(C[C@H](O)[C@@H](O)[C@H](O)[C@H](O)CO)C[C@H](O)[C@@H](O)[C@H](O)[C@H](O)CO)ccc21", "14 nM"),
    ("CCn1c(CNC(=O)c2nc3cc[nH]c3nc2N)[n+](CC)c2ccc(C(=O)NCCN3CCC(N)CC3)cc21", "10 nM"),
]

----------
Assay info: Bronchoalveolar lavage (BAL) procedure: compound levels after intratracheal administration
Type: in vivo
Condition label: bronchoalveolar lavage fluid (BAL), other: intratracheal, 0.1 mg/kg, rat, 0.1 mg/mL solution in 5% dextrose, 1 mL/Kg, BAL 6 hours after administration, LC/MS/MS
Form field: concentration at 6 h (one value per entry).
Experimental endpoint: concentration at 6 h

# Compound, Experimental endpoint, Result
records = [
    ("CCn1c(CNC(=O)c2nc3cc[nH]c3nc2N)[n+](CC)c2ccc(C(=O)N(C)CCCN(C[C@H](O)[C@@H](O)[C@H](O)[C@H](O)CO)C[C@H](O)[C@@H](O)[C@H](O)[C@H](O)CO)cc21 [Example 57]", "concentration at 6 h", "283 ng/mL"),
    ("CCn1c(CNC(=O)c2nc3cc[nH]c3nc2N)[n+](CC)c2ccc(C(=O)N[C@H]3CC[C@@H](N(C[C@H](O)[C@@H](O)[C@H](O)[C@H](O)CO)C[C@H](O)[C@@H](O)[C@H](O)[C@H](O)CO)CC3)cc21 [Example 56]", "concentration at 6 h", "283 ng/mL"),
    ("CCn1c(CNC(=O)c2nc3cc[nH]c3nc2N)[n+](CC)c2ccc(C(=O)N[C@H]3CC[C@H](N(C[C@H](O)[C@@H](O)[C@H](O)[C@H](O)CO)C[C@H](O)[C@@H](O)[C@H](O)[C@H](O)CO)CC3)cc21 [Example 55]", "concentration at 6 h", "284 ng/mL"),
]
